Reference source for all entries: ChEMBL document CHEMBL4706495

Provide the recorded viability at 10 µM for the entries that follow.
# System: A549
# Protocol Notes: Cytotoxicity against human A549 cells assessed as cell viability at 10 uM measured after 48 hrs by WST-1 assay relative to control
# Assay type: functional
# Applied Conditions: read-out: Activity
Answers are plain numbers, in %.

COc1cccc(OC)c1OCC(O)CN1CCN(CCO)CC1 (stereo unspecified)	97
Cc1ccc(OCC(O)CN2CCN(CCO)CC2)cc1 (stereo unspecified)	106

Could you report viability at 10 µM for every entry in the following list?
1. C=CCc1ccc(OCC(O)CN2CCN(CCO)CC2)c(OC)c1 (stereo unspecified)
2. OCCN1CCN(CC(O)COc2ccc3ccccc3c2)CC1 (stereo unspecified)
3. Cc1ccccc1OCC(O)CN1CCN(CCO)CC1 (stereo unspecified)
4. Cc1ccc(C(C)C)c(OCC(O)CN2CCN(CCO)CC2)c1 (stereo unspecified)

91
102
95
90
